Tested on: C. albicans 15T
assayExplanation: MIC determination by AFST-EUCAST standard methodology
Assay type: cell-based, Candida albicans
condition: Candida albicans, 24 h, visually and spectrophotometrically, read-out: Antifungal activity, expressed as MIC50
Where a name gives a salt, the structure may show the parent alone.
measuredProperty: MIC50 (µM)

>>> observed("OC(Cn1cncn1)(Cn1cncn1)c1ccc(F)cc1F [F, fluconazole, reference compound]")
209
>>> observed("C=C(C)CNC(=N)NCCCCCCCCN1CCCCCCCCNC(=N)NC1=O [Compound 15d, tri trifluoroacetate]")
20
>>> observed("C#CCNC(=N)NCCCCCCCCN1CCCCCCCCNC(=N)NC1=O.O=C(O)C(F)(F)F.O=C(O)C(F)(F)F.O=C(O)C(F)(F)F [Compound 15b, tri trifluoroacetate]")
2.5

(1) N=C(NCCCCCCCCN1CCCCCCCCNC(=N)NC1=O)NCC1CC1 [Compound 15c, tri trifluoroacetate]
(2) CC(C)=CCNC(=N)NCCCCCCCCN1CCCCCCCCNC(=N)NC1=O [Compound 15e, tri trifluoroacetate]
Higher MIC50: 1 or 2 ? Which one? Tell me its label.
2
